tested on: L929 cells; assay: L929 cell necroptosis assay (TNFa + zVAD, CellTiter-Glo); format: cell-based, murine; details: Mus musculus; L929 cells, TNFa + zVAD; read-out: L929-CTG-recovery, L929, TNFa + zVAD (IC50)
value.kind: pIC50
The meaning of pIC50 here: minus log10 of the concentration in molar units.

> print(dat)
                                        mol  tested.target  readout.value
1  CN1C(=O)[C@@H](NC(=O)c2nnc(C3(c4ccccc4)CC3)o2)COc2ccc(N3CC4(CCOCC4)C3)cc21     L929 cells           5.97
2  CN1C(=O)[C@@H](NC(=O)c2cc(Oc3ccccc3)ccn2)COc2ccc(N3CCC4(CCOCC4)C3)cc21     L929 cells           6.18
3  CN1CCC2(CC1)CCN(c1ccc3c(c1)N(C)C(=O)[C@@H](NC(=O)c1cc(Oc4ccccc4)ccn1)CO3)CC2     L929 cells           4.98

For the molecule `CN1C(=O)[C@@H](NC(=O)c2ncn(Cc3ccccc3)n2)COc2ccc(C#CC(C)(C)C)cc21` , what pIC50 is on record?
9.30

Can you handle `CN1C(=O)[C@@H](NC(=O)c2n[nH]c(Cc3ccccc3)n2)COc2ccc(/C=C(\Cl)C(C)(C)O)cc21` next?
8.34

====

system: L929 cells; assay: L929 cell necroptosis assay (TNFa + zVAD, CellTiter-Glo); format: cell-based, murine; details: Mus musculus, L929, L929 cells, TNFa + zVAD; read-out: L929-CTG-recovery, L929, TNFa + zVAD (IC50)
Grouping rule (IC50): small value: < 30 nM; mid value: ≥ 30 nM and < 400 nM; large value: ≥ 400 nM

Observe how each entry below is paired with its result.
> print(dat)
                                   compound        group
1  COC(C)(C)C#Cc1ccc2c(c1)N(C)C(=O)[C@@H](NC(=O)c1n[nH]c(Cc3ccccc3)n1)CO2  small value
2  CN1C(=O)[C@@H](NC(=O)c2cc(Oc3c(F)cccc3F)ccn2)COc2ccc(C#CC(C)(C)O)cc21    mid value
3  CN1C(=O)[C@@H](NC(=O)c2cc(Oc3ccccc3)ccn2)COc2ccc(C#Cc3cccc(C#N)n3)cc21    mid value

Band assignment needed for `CN1C(=O)[C@@H](NC(=O)c2ncn(Cc3ccccc3)n2)COc2ccc(C#CC(C)(C)O)cc21` please.
small value

Can you handle `CN1CCC(O)(C#Cc2ccc3c(c2)N(C)C(=O)[C@@H](NC(=O)c2cc(Oc4ccc(F)cc4)ccn2)CO3)CC1` next?
large value

====

system: L929 cells; experiment: L929 cell necroptosis assay (TNFa + zVAD, CellTiter-Glo); assay type: cell-based, murine; settings: Mus musculus, L929, L929 cells, TNFa + zVAD; read-out: L929-CTG-recovery, L929, TNFa + zVAD (IC50)
value.kind: pIC50
The meaning of pIC50 here: minus log10 of the concentration in molar units.

Please review the following examples before continuing.
> print(dat)
                                        mol  tested.target  value.kind  readout.value
1  CN1C(=O)[C@@H](NC(=O)c2n[nH]c(Cc3ccccc3)n2)COc2ccc(C#CCN3CCCC3)cc21     L929 cells       pIC50           9.30
2  CN1C(=O)[C@@H](NC(=O)c2n[nH]c(Cc3ccccc3)n2)COc2cc(C#CC3(O)COC3)ccc21     L929 cells       pIC50           8.57
3  COC(=O)C#Cc1ccc2c(c1)N(C)C(=O)[C@@H](NC(=O)c1cc(Oc3ccccc3)ccn1)CO2     L929 cells       pIC50           4.79

For the molecule `CN1C(=O)[C@@H](NC(=O)c2n[nH]c(Cc3ccccc3)n2)COc2cc(C#CC(C)(C)O)ccc21` , what pIC50 is on record?
9.52

Can you handle `Cc1cccc(C)c1Cn1cnc(C(=O)N[C@H]2COc3ccc(C#CC(C)(C)O)cc3N(C)C2=O)n1` next?
7.91

Can you handle `CN1C(=O)[C@@H](NC(=O)c2cc(Oc3ccccc3)ccn2)COc2ccc(C#CC(C)(C)COP(=O)(O)O)cc21` next?
5.54

Can you handle `CCOC(=O)CCc1ccc2c(c1)N(C)C(=O)[C@@H](NC(=O)c1n[nH]c(Cc3ccccc3)n1)CO2` next?
5.63

Can you handle `CN1C(=O)[C@@H](NC(=O)n2cc(Cc3ccc(F)cc3)cn2)COc2ccc(C#CC3(O)CC4(CCC4)C3)cc21` next?
6.66
